Molecular target: HLA-A*25:01
Experiment: IEDB peptide-MHC binding, purified MHC/direct/fluorescence; filed as Kd, often an IC50 or EC50 that approximates it; bounds were set here for any values at or beyond the usual limits of such assays
Settings: source organism: West Nile virus strain PTRoxo
REPORTED_ENDPOINT: Kd (nM)
Just the number in nM, nothing appended.

q: For EIPDVLNSL , what is its reported Kd?
a: 23

* * *

Biological target: HLA-A*03:01
Test: IEDB peptide-MHC binding, purified MHC/competitive/radioactivity; filed as Kd, often an IC50 or EC50 that approximates it; bounds were set here for any values at or beyond the usual limits of such assays
Conditions: source organism: Triticum aestivum
REPORTED_ENDPOINT: Kd (nM)
Just the number in nM, nothing appended.

q: For VVLQQHSIAY , what is its reported Kd?
a: 2340
